- Read-out: Monocyte Chemoattractant Protein-1 (MCP1), CCL2 (gene 6347)
- Experiment: BSK_IMphg_MCP1: BioMAP Diversity Plus: IMphg Assay for Monocyte Chemoattractant Protein-1 (MCP1) Biomarker Activity (AID 2284253)
- Study Conditions: primary human endothelial cells with macrophages
Active and inactive are the calls of the source. How the source made its calls: active means hit-call score of the fitted dose curve at least 0.9, where 1 is the maximum; inactive means score below 0.9.
The reply should be one of these categories: label 1 = active, label 0 = inactive

{"Molecule": "O=C(O)C(F)(F)C(F)(F)C(F)(F)C(F)(F)C(F)(F)C(F)(F)C(F)(F)C(F)(F)C(F)(F)C(F)(F)C(F)(F)C(F)(F)F", "Answer Label": "label 0"}

QUERY: Assay outcome for FC(F)(F)C(F)(F)C(F)(F)C(F)(F)C(F)(F)CCI : what was it?
RESULT: label 0

QUERY: Assay outcome for CC(C)(C)C(=O)CC(=O)C(F)(F)C(F)(F)C(F)(F)F : what was it?
RESULT: label 0

QUERY: Assay outcome for O=C(O)C(F)(F)C(F)(F)C(F)(F)F : what was it?
RESULT: label 0

QUERY: Assay outcome for OCC(F)(F)C(F)(F)C(F)(F)C(F)(F)C(F)(F)C(F)(F)F : what was it?
RESULT: label 0

QUERY: Assay outcome for C=CC(F)(F)C(F)(F)C(F)(F)C(F)(F)C(F)(F)C(F)(F)C(F)(F)C(F)(F)C=C : what was it?
RESULT: label 0

QUERY: Assay outcome for FC(F)(F)C(F)(F)C(F)(F)CI : what was it?
RESULT: label 0

* * *

- Experiment: ATG_SREBP_CIS: Attagene CIS-FACTORIAL HepG2 Assay for human Sterol Regulatory Element Binding (SREBP) (AID 2282962)
- Study Conditions: HepG2 Attagene cis-factorial SREBP reporter, mRNA; actives raise or lower the signal
Activity calls are given as the source filed them. The calls were made as follows: active = hit-call score of the fitted dose curve at least 0.9, where 1 is the maximum; inactive = score below 0.9.
The reply should be one of these categories: active, inactive

Recorded results for 8 compounds are shown here.
{"Compound": "O=C(O)C(F)(F)C(F)(F)C(F)(F)C(F)(F)C(F)(F)C(F)(F)C(F)(F)C(F)(F)C(F)(F)C(F)(F)C(F)(F)C(F)(F)F", "Answer Label": "inactive"}
{"Compound": "CCCCCCS", "Answer Label": "inactive"}
{"Compound": "CCCCOCCOCCOC(=O)CCCCC(=O)OCCOCCOCCCC", "Answer Label": "inactive"}
{"Compound": "CC(C)(C)c1ccc(OC2CCCCC2O)cc1 (stereo not drawn)", "Answer Label": "active"}
{"Compound": "OCC(F)(F)C(F)(F)C(F)(F)F", "Answer Label": "inactive"}
{"Compound": "C=CC(=O)OCC(F)(F)C(F)(F)C(F)(F)C(F)(F)C(F)(F)C(F)(F)C(F)(F)F", "Answer Label": "inactive"}
{"Compound": "CC(C)(C)C(=O)CC(=O)C(F)(F)C(F)(F)C(F)(F)F", "Answer Label": "inactive"}
{"Compound": "O[Si](c1ccccc1)(c1ccccc1)c1ccccc1", "Answer Label": "active"}

QUERY: Assay outcome for COC(=O)C1CCC(C(=O)OC)CC1 (stereo not drawn) : what was it?
RESULT: inactive

QUERY: Assay outcome for O=C(CC(=O)C(F)(F)C(F)(F)F)C(F)(F)F : what was it?
RESULT: inactive

QUERY: Assay outcome for Nc1ccc([N+](=O)[O-])cc1O : what was it?
RESULT: inactive

QUERY: Assay outcome for CCN(Cc1cccc(S(=O)(=O)O)c1)c1ccc(C(=C2C=CC(=[N+](CC)Cc3cccc(S(=O)(=O)O)c3)C=C2)c2ccc(O)cc2S(=O)(=O)[O-])cc1 : what was it?
RESULT: inactive

QUERY: Assay outcome for Cc1ccc(S(=O)(=O)OCC(F)(F)C(F)(F)C(F)(F)C(F)(F)C(F)(F)C(F)F)cc1 : what was it?
RESULT: inactive

QUERY: Assay outcome for FC(F)(F)C(F)(F)C(F)(F)C(F)(F)C(F)(F)C(F)(F)C(F)(F)Br : what was it?
RESULT: inactive

QUERY: Assay outcome for COC(=O)CCC(F)(F)C(F)(F)C(F)(F)C(F)(F)F : what was it?
RESULT: inactive

QUERY: Assay outcome for CCCCOc1ccc(N)cc1 : what was it?
RESULT: inactive

QUERY: Assay outcome for c1ccc(-c2ccccc2-c2ccccc2)cc1 : what was it?
RESULT: active

QUERY: Assay outcome for N=C(N)C(F)(F)C(F)(F)C(F)(F)C(F)(F)C(F)(F)C(F)(F)C(F)(F)F : what was it?
RESULT: inactive

QUERY: Assay outcome for Nc1ccc(Oc2cccc(Oc3ccc(N)cc3)c2)cc1 : what was it?
RESULT: active

QUERY: Assay outcome for C=CC(F)(F)C(F)(F)C(F)(F)C(F)(F)C(F)(F)C(F)(F)C(F)(F)C(F)(F)F : what was it?
RESULT: inactive

QUERY: Assay outcome for C=CC/C=C/C/C=C/C/C=C/C : what was it?
RESULT: inactive

QUERY: Assay outcome for FC1CC(F)(F)C(F)(F)C1(F)F (stereo not drawn) : what was it?
RESULT: inactive

QUERY: Assay outcome for O=C(O)C=C(C(F)(F)F)C(F)(F)F : what was it?
RESULT: inactive
